Test system: HepG2 cells
experimental-setup: Homo sapiens, HepG2, read-out: ACLY HepG2 14C-Pyruvate Assay serum free IC50 FA (IC50) [μM]
endpoint: IC50

O=S(=O)(Nc1cc(-c2ccccc2)c(F)cc1F)c1cc(Cl)cc(Cl)c1O > 10 µM

Exercise: Give a short answer stating reported IC50 for O=C(c1cc(Cl)c(O)c(S(=O)(=O)Nc2cc(-c3ccccc3)c(F)cc2F)c1)N1CCCC1 .
Key: > 10 µM

Exercise: Name the recorded IC50 of the compound listed here: CCC(=O)c1cc(Cl)c(O)c(S(=O)(=O)Nc2cc(-c3ccccc3)c(F)cc2F)c1
Key: > 10 µM

Exercise: Give me measured IC50, please, for this compound: COc1cc(-c2ccccc2)ccc1NS(=O)(=O)c1cc(Cl)cc(Cl)c1O
Key: 1 to 10 µM

Exercise: Output IC50 of COC(=O)c1cc(Cl)c(O)c(S(=O)(=O)Nc2cc(-c3ccccc3)cc(F)c2F)c1
Key: > 10 µM

---

Reported IC50 values follow for various compounds
target-of-assay: ACL (Homo sapiens (Human), UniProt P53396)
run-description: ADP-Glo Assay
Sequence (P53396 other isoform, or with tags, fused parts or gaps isoform P53396-2): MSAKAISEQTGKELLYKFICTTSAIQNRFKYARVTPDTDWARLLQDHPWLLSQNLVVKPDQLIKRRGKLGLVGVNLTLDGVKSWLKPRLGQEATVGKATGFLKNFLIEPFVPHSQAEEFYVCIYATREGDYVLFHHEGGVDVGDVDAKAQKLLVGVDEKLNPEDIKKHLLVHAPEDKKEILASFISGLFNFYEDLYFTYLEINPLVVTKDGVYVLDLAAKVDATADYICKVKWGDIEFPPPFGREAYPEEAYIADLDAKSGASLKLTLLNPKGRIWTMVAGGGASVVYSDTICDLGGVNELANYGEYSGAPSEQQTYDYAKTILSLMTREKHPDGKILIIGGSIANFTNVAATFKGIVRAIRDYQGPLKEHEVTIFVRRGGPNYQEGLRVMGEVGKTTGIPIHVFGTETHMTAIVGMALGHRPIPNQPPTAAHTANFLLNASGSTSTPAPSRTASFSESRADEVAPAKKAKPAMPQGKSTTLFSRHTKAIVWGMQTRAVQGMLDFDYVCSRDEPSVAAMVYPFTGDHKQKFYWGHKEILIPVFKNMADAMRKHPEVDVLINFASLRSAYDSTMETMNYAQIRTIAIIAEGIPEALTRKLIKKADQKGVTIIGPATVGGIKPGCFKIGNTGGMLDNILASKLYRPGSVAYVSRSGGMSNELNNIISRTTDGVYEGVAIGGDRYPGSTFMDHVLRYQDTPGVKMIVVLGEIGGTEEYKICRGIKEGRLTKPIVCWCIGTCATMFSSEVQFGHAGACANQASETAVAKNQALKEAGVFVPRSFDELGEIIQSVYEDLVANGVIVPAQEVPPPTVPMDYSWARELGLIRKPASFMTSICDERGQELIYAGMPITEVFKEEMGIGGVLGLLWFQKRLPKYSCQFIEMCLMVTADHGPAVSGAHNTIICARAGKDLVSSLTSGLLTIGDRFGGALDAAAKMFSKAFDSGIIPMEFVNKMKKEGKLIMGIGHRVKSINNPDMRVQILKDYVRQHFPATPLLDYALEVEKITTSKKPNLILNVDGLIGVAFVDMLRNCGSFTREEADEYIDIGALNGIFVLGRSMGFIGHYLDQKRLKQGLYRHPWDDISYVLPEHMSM

Exercise: Please tell me the measured IC50 for COC(=O)COc1c(Br)cc(Cl)cc1S(=O)(=O)Nc1cc(-c2ccccc2)ccc1F ; system: ACL (Homo sapiens (Human), UniProt P53396).
Key: 500 to 20000 nM

Exercise: Specify IC50 for COc1ccc(-c2ccccc2)cc1NS(=O)(=O)c1cc(-c2nccn2C)cc(Cl)c1O , system ACL (Homo sapiens (Human), UniProt P53396).
Key: 50 to 500 nM

Exercise: Answer briefly: IC50 recorded on ACL (Homo sapiens (Human), UniProt P53396) for O=C(O)c1cc(Cl)c(O)c(S(=O)(=O)Nc2cc(-c3ccccc3)cc(F)c2F)c1
Key: 500 to 20000 nM

---

target-of-assay: ACL (Homo sapiens (Human))
run-description: ACLY-MDH Coupled Assay
Sequence (P53396 whole entry, species assumed): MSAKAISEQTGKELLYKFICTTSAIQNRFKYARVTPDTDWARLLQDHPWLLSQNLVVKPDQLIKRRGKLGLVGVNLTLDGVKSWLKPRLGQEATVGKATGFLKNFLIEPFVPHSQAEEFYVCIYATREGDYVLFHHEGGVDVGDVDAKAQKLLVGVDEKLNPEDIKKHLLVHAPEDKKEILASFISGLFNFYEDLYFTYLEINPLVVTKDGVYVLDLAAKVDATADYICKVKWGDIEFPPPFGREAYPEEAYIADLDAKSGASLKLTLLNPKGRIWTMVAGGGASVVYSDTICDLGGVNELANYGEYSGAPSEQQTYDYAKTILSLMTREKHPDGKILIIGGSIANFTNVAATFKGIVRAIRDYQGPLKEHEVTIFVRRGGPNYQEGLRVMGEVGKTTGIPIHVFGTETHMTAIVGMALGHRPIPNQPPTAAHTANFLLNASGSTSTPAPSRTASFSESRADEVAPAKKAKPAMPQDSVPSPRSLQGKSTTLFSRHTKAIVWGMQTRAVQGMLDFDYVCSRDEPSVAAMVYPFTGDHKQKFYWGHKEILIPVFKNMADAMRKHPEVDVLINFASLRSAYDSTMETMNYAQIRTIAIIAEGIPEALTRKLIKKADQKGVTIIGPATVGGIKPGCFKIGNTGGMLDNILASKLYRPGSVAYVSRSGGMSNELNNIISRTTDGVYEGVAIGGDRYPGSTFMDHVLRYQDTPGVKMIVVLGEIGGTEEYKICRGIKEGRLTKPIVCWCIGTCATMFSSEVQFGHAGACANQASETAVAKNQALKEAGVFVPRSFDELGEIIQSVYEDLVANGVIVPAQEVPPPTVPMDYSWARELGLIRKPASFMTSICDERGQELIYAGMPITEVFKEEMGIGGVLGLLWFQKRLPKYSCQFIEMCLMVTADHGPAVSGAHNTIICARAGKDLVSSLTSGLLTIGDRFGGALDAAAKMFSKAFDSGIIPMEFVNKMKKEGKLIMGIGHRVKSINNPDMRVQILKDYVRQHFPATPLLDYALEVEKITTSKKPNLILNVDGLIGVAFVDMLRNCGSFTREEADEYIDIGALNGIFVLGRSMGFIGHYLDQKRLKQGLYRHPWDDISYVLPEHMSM
pIC50: −log10 of the molar value.
endpoint: pIC50

O=C(c1cc(Cl)c(O)c(S(=O)(=O)Nc2cc(-c3ccccc3)ncc2F)c1)N1CCC1 4.52 to 6.30

Exercise: Output pIC50 of COc1c(Cl)cc(C(F)(F)F)cc1S(=O)(=O)Nc1cc(-c2ccccc2)ccc1C(=O)O
Key: 6.30 to 7.30

Exercise: State, in one line, measured pIC50 of O=C(O)c1ccc(-c2ccccc2)cc1NS(=O)(=O)c1cc(Cl)c(Cl)s1
Key: 4.52 to 6.30

Exercise: Let me know recorded pIC50 for O=S(=O)(Nc1cc(-c2ccccc2)ccc1OC(F)(F)F)c1cc(Cl)cc(Cl)c1O , thanks.
Key: 6.30 to 7.30

---

A collection of compounds and their measured IC50
Test system: HepG2 cells
experimental-setup: Homo sapiens, HepG2, read-out: ACLY HepG2 14C-Pyruvate Assay serum free IC50 FA (IC50) [μM]

CCOC(=O)c1cc(Cl)c(O)c(S(=O)(=O)Nc2cc(-c3ccccc3)c(F)cc2F)c1 1 to 10 µM
CON(C)C(=O)c1cc(Cl)c(O)c(S(=O)(=O)Nc2cc(-c3ccccc3)c(F)cc2F)c1 > 10 µM
COc1ccc(-c2ccccc2)cc1NS(=O)(=O)c1cc(Cl)cc(Br)c1O 1 to 10 µM
O=C(O)c1ccc(C2CC2)cc1NS(=O)(=O)c1cc(Cl)cc(C(F)(F)F)c1 1 to 10 µM

Exercise: Check HepG2 cells data and give IC50 for O=C(O)c1c(NS(=O)(=O)c2cc(Cl)cc(Cl)c2)sc2ccccc12 .
Key: > 10 µM
